test system: Plasmodium falciparum; assay: Parasiticidal activity against Plasmodium falciparum 3D7; assay type: functional, organism-based
observed property: pEC50
Numbers only, as −log10 of the molar value.

Answer for every listed entry: what is its pEC50? The entries follow.
1. CNC(=O)C1CN(S(=O)(=O)c2cccc(Br)c2)CCN1S(=O)(=O)c1ccc(-c2ccccc2)cc1 (stereo not drawn)
2. CNC(=O)C1CN(S(=O)(=O)c2ccc(-c3ccccc3)cc2)CCN1S(=O)(=O)c1cccc(-c2cccnc2OC)c1 (stereo not drawn)
3. CNC(=O)C1CN(S(=O)(=O)c2ccc(-c3ccccc3)cc2)CCN1S(=O)(=O)c1cccc(-c2ccc(C(=O)c3ccccc3)cc2)c1 (stereo not drawn)
4. O=C(NO)C1CN(C(=O)c2ccc(-c3ccccc3)cc2)CCN1S(=O)(=O)c1ccc(-c2ccsc2)cc1 (stereo not drawn)
5. O=C(NO)C1CN(Cc2ccc(-c3ccccc3)cc2)CCN1S(=O)(=O)c1ccc(Br)cc1 (stereo not drawn)
6. O=C(NO)C1CN(C(=O)c2ccc3ccccc3c2)CCN1S(=O)(=O)c1ccc(Br)cc1 (stereo not drawn)

5.33
5.22
6.05
5.22
5.00
5.15
